Parameter: pIC50. Scope: all listed entries.
target: GTPase HRas [G12V] (Homo sapiens, UniProt P01112, G12V); test: In Vitro Ras-Raf Binding Inhibitory Activity Assay
Sequence (P01112 whole entry G12V, looked up): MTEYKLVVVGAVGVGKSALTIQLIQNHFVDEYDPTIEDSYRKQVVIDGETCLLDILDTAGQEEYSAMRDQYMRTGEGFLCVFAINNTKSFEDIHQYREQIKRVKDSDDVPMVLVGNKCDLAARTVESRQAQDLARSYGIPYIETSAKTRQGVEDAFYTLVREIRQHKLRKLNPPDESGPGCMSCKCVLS
Just the number, please; pIC50 means minus log10 of the concentration in mol/L.

Example results:
INSERT INTO results (molecule, study_target, recorded_number) VALUES
  ('COCC(O)CN1CCN(C(=O)c2ccc3nc(/C=C4/C(=O)c5ccccc5N4C(C)=O)cc(-c4ccccc4-c4ccccc4)c3c2)CC1 (stereo unspecified) [US20250091994, Example 96]', 'GTPase HRas [G12V] (Homo sapiens, UniProt P01112, G12V)', 6.46),
  ('CCn1cc(-c2cc(/C=C3/C(=O)c4ccccc4N3C(C)=O)nc3ccc(C(=O)N4CCOCC4)cc23)cn1 [US20250091994, Example 178]', 'GTPase HRas [G12V] (Homo sapiens, UniProt P01112, G12V)', 6.10),
  ('CC(=O)N1/C(=C/c2nc(C(=O)N3CCOCC3)cs2)C(=O)c2ccccc21 [US20250091994, Example 55]', 'GTPase HRas [G12V] (Homo sapiens, UniProt P01112, G12V)', 5.19),
  ('CC(=O)N1C(=Cc2cc(-c3cccc4ccccc34)c3cc(C(=O)N4CCOCC4)ccc3n2)C(=O)c2ccccc21 [US20250091994, Example 118]', 'GTPase HRas [G12V] (Homo sapiens, UniProt P01112, G12V)', 6.14),
  ('COc1cc(/C=C2/C(=O)c3ccccc3N2C(C)=O)ccc1CCC(N)=O [US20250091994, Example 31]', 'GTPase HRas [G12V] (Homo sapiens, UniProt P01112, G12V)', 4.89),
  ('CC(=O)N1/C(=C\c2ccc3cc(C(=O)N4CCC(c5ccccc5)CC4)ccc3n2)C(=O)c2ccccc21 [US20250091994, Example 114]', 'GTPase HRas [G12V] (Homo sapiens, UniProt P01112, G12V)', 4.54),
  ('CC(=O)N1C(=Cc2cc(C(=O)N3CCN(C4COC4)CC3)c3ccccc3n2)C(=O)c2ccccc21 [US20250091994, Example 204]', 'GTPase HRas [G12V] (Homo sapiens, UniProt P01112, G12V)', 5.74),
  ('CC(=O)N1/C(=C\c2cc(-c3ccccc3-c3ccccc3)c3cc(C(=O)N4CCC(C(=O)O)CC4)ccc3n2)C(=O)c2ccccc21 [US20250091994, Example 142]', 'GTPase HRas [G12V] (Homo sapiens, UniProt P01112, G12V)', 6.10);

Would you kindly look at the next entry?
INPUT: Value wanted: pIC50 (GTPase HRas [G12V] (Homo sapiens, UniProt P01112, G12V)) of entry CC(=O)N1/C(=C\c2ccc3cc(C#N)ccc3n2)C(=O)c2ccccc21 [US20250091994, Example 34]
OUTPUT: 5.55

---

Target: GTPase HRas [G12V] (Homo sapiens, UniProt P01112, G12V)
Assay: In Vitro Ras-Raf Binding Inhibitory Activity Assay
Protocol: The in vitro Ras-Raf binding inhibitory activity of the compound of the present invention was evaluated by an ELISA method described below. GST-c-Raf-1 RBD diluted with a Ras-Raf binding buffer (50 mM Tris-HCl pH7.4, 150 mM NaCl, 5 mM MgCl2, 1 mM EDTA, and 1% Triton-X100) was added to each well of a glutathione-coated 96-well plate (Thermo Fisher Scientific.), and was incubated at 30° C. for 1 hour, to immobilize Raf on the well. […]
Parameter: pIC50. Scope: all listed entries.
Just the number, please; pIC50 means minus log10 of the concentration in mol/L.

Example results:
INSERT INTO assay_data (chem_smiles, recorded_number) VALUES
  ('COc1cc(C=C2C(=O)c3c(F)cccc3N2C(C)=O)ccc1OCC(=O)N1CCOCC1', 5.05),
  ('CC(=O)N1/C(=C/c2ncc(C(=O)N3CCOCC3)s2)C(=O)c2ccccc21', 5.64),
  ('COC1(COC(=O)N2CCN(C(=O)c3ccc4nc(/C=C5/C(=O)c6ccccc6N5C(C)=O)ccc4c3)CC2)COC1', 5.66),
  ('COc1cc(/C=C2/C(=O)c3ccccc3N2C(C)=O)ccc1OCS(C)(=O)=O', 5.68),
  ('COc1cc(/C=C2/C(=O)c3cc(F)ccc3N2C(C)=O)ccc1OCC(=O)N1CCOCC1', 4.92),
  ('COc1cc(C=C2C(=O)c3ccc(F)cc3N2C(C)=O)ccc1OCC(=O)N1CCOCC1', 5.00);

INPUT: For `CC(=O)N1CCc2c(cccc2-c2cc(/C=C3/C(=O)c4ccccc4N3C(C)=O)nc3ccc(C(=O)N4CCOCC4)cc23)C1` , what is its reported pIC50?
OUTPUT: 6.30

---

molecular target: GTPase HRas [G12V] (Homo sapiens, UniProt P01112, G12V); assay: In Vitro Ras-Raf Binding Inhibitory Activity Assay
property-name: pIC50
Just the number, please; pIC50 means minus log10 of the concentration in mol/L.

Example results:
INSERT INTO results (chem_smiles, recorded_number) VALUES
  ('COCCN1CCN(C(=O)c2ccc3nc(/C=C4/C(=O)c5ccccc5N4C(C)=O)ccc3c2)CC1', 5.08),
  ('CC(=O)N1CCc2cc(-c3cc(/C=C4/C(=O)c5ccccc5N4C(C)=O)nc4ccc(C(=O)N5CCOCC5)cc34)ccc2C1', 6.10),
  ('CC(=O)N1C(=Cc2cc(-c3ccc(-c4ccccc4)cc3)c3cc(C(=O)N4CCN(C5COC5)CC4)ccc3n2)C(=O)c2ccccc21', 5.62),
  ('CC(=O)N1/C(=C\c2ccc3cc(CN(C4CCOCC4)S(C)(=O)=O)ccc3n2)C(=O)c2ccccc21', 5.80);

INPUT: For `CC(=O)N1/C(=C\c2ccc3cc(CCC(=O)N4CCOCC4)ccc3n2)C(=O)c2ccccc21` , what is its reported pIC50?
OUTPUT: 5.92

INPUT: For `CC(=O)N1C(=Cc2nc3cc(/C=C/C(=O)N4CCOCC4)ccc3s2)C(=O)c2ccccc21` , what is its reported pIC50?
OUTPUT: 6.34

---

Target: GTPase HRas [G12V] (Homo sapiens, UniProt P01112, G12V)
Test: In Vitro Ras-Raf Binding Inhibitory Activity Assay
Procedure: The in vitro Ras-Raf binding inhibitory activity of the compound of the present invention was evaluated by an ELISA method described below. GST-c-Raf-1 RBD diluted with a Ras-Raf binding buffer (50 mM Tris-HCl pH7.4, 150 mM NaCl, 5 mM MgCl2, 1 mM EDTA, and 1% Triton-X100) was added to each well of a glutathione-coated 96-well plate (Thermo Fisher Scientific.), and was incubated at 30° C. for 1 hour, to immobilize Raf on the well. […]
property-name: pIC50
Just the number, please; pIC50 means minus log10 of the concentration in mol/L.

Example results:
INSERT INTO measurements (chem_smiles, property_name, recorded_number) VALUES
  ('CC(=O)N1C(=Cc2cc(-c3ccccc3-c3ccccc3)c3cc(C(=O)NC4CCN(C5COC5)CC4)ccc3n2)C(=O)c2ccccc21', 'pIC50', 6.29),
  ('COc1cc(/C=C2/C(=O)c3ccccc3N2C(C)=O)ccc1OCC(=O)Nc1ccccc1', 'pIC50', 5.14);

Would you kindly look at the next entry?
INPUT: For `CC(=O)N1/C(=C\c2ccc3cc(OCC(=O)N4CCOCC4)ccc3n2)C(=O)c2ccccc21` , what is its reported pIC50?
OUTPUT: 5.62

---

target: GTPase HRas [G12V] (Homo sapiens, UniProt P01112, G12V); assay: In Vitro Ras-Raf Binding Inhibitory Activity Assay
Could you please mark Criterion met for values of IC50 below 2000 nM and Criterion not met for values at or above it?

These solved cases illustrate the format of a correct answer.
INSERT INTO results (chem_smiles, category_label) VALUES
  ('CC(=O)N1C(=Cc2ccc3cc(CNC4CCOCC4)ccc3n2)C(=O)c2ccccc21', 'Criterion met'),
  ('CC(=O)N1CCc2c(cccc2-c2cc(/C=C3/C(=O)c4ccccc4N3C(C)=O)nc3ccc(CNC4CCOCC4)cc23)C1', 'Criterion met'),
  ('CC(=O)N1C(=Cc2ccc3cc(CNS(C)(=O)=O)ccc3n2)C(=O)c2ccccc21', 'Criterion met'),
  ('CC(=O)N1CCc2cc(-c3cc(/C=C4/C(=O)c5ccccc5N4C(C)=O)nc4ccccc34)ccc2C1', 'Criterion met'),
  ('COc1cc(/C=C2/C(=O)c3ccccc3N2C(C)=O)ccc1OCC(=O)N1CCCC1', 'Criterion not met'),
  ('CC(=O)N1/C(=C\c2cc(N=[N+]=[N-])c3cc(C(=O)N4CCOCC4)ccc3n2)C(=O)c2ccccc21', 'Criterion met');

INPUT: IC50 strictly < 2000 nM for this compound? `CC(=O)N1/C(=C/c2cc(-c3cccc4[nH]ncc34)c3cc(C(=O)N4CCOCC4)ccc3n2)C(=O)c2ccccc21`
OUTPUT: Criterion met

INPUT: IC50 strictly < 2000 nM for this compound? `COc1cc(/C=C2/C(=O)c3cccnc3N2C(C)=O)ccc1OCC(=O)N1CCOCC1`
OUTPUT: Criterion not met

These data points were gathered from BindingDB's records for patent US20250091994.
